# System: LOX IMVI melanoma
# Experiment summary: NCI-60 one-dose screen, 48 h (100 = growth as untreated, 0 = no growth, -100 = all killed)
# Condition context: 10 µM unless noted
# Procedure: Growth inhibition of the LOX IMVI human tumor cell line is measured as a screen for anti-cancer activity. Cells are grown in 96 well plates and exposed to the test compound for 48 hours. Compounds are tested at a single concentration, which is 10^-5 M for most compounds. The reported endpoint is percent growth (GI% or GIPRCNT), where numbers from 0 - 100% represent growth inhibition, and numbers from -100% - 0 represent cell death. For example, a value of 40 represents 60% growth inhibition. […]
This is part of a sample that, as a whole, favours compounds with a hit. Of some 83,000 tested, about 20% had one in any assay. Active and inactive are the calls of the source. How the source made its calls: active means growth percent below 10; inactive means the rest.
Assay endpoint: growth

{"Compound": "COc1ccc(/C=C/C(c2cc(OC)c(OC)c(OC)c2)n2ccnc2)cc1O (centres undefined)", "growth": "46.1% (inactive)"}
{"Compound": "CCNC(=O)Oc1ccc(/C(=C(/CC)Cc2ccccc2)c2ccc(OCCN3CCCC3)cc2)cc1", "growth": "91.4% (inactive)"}
{"Compound": "Cc1ccc(/C=C/C(=O)Nc2ncc(Cc3ccc(F)cc3)s2)o1", "growth": "40.6% (inactive)"}

*Q* Using the record for COc1cccc(CCNc2ncnc3c2ncn3Cc2nnc3c4ccccc4c(Cl)nn23)c1 , state its measured growth.
*A* 8.78% (active)

*Q* Using the record for CCOC(=O)c1[nH]c2c(c1C)-c1[nH]c(=O)c(S(=O)(=O)c3ccccc3)cc1SC2 , state its measured growth.
*A* 50% [100 µM] (inactive)

*Q* Using the record for COc1cc(/C=C2\CN(S(=O)(=O)c3ccccc3)C/C(=C\c3cc(CN4CCCCC4)c(O)c(OC)c3)C2=O)cc(CN2CCCCC2)c1O , state its measured growth.
*A* -87% (active)

*Q* Using the record for CCCCNc1nnc2n(Cc3ccccc3)c(=O)c3c4c(sc3n12)CCCC4 , state its measured growth.
*A* 30.2% (inactive)

*Q* Using the record for O=C1Nc2ccccc2C1(c1c[nH]c2ccccc12)c1c[nH]c2ccccc12 , state its measured growth.
*A* 8.4% (active)

*Q* Using the record for CCSc1oc(C)nc1[P+](c1ccccc1)(c1ccccc1)c1ccccc1 , state its measured growth.
*A* 25.7% (inactive)

*Q* Using the record for CC1(C)CC2=C3C=C[C@@H]4[C@@]5(C)CCC(=O)C(C)(C)[C@@H]5CC[C@@]4(C)[C@]3(C)CC[C@@]2(C(=O)O)C[C@H]1O , state its measured growth.
*A* 7.33% (active)

*Q* Using the record for COc1cc(/C=N/Nc2ccc(Br)cc2)cc(OC)c1OC , state its measured growth.
*A* 13.5% (inactive)

*Q* Using the record for O=S(=O)(NCCNc1nccc(-c2c(-c3cccc(O)c3)nc3occn23)n1)c1ccc(Br)cc1 , state its measured growth.
*A* 25.2% (inactive)

*Q* Using the record for Cc1n[nH]c2ccc(Br)cc2c1=O , state its measured growth.
*A* 101% (inactive)
